tested on: JAK2-mediated pSTAT5 signaling in constitutively active essential thrombocytopenia cells carrying the V617F mutation; assay: SET2-pSTAT5 Cellular Assay; type: cell-based; details: Homo sapiens, SET-2; SET2 cells, pSTAT5, 4 hours, MSD; read-out: IC50
Observed Property: IC50

Compound: CC(=O)Nc1cc(Oc2cnc3nc(Nc4cc5n(n4)CCCC54CC4)n(C)c3c2C#N)ccn1
Result: 0.2 to 1 µM

Compound: COCC(=O)Nc1cc(Oc2cnc3nc(Nc4cc(C(F)(F)F)cn(C)c4=O)n(C)c3c2C#N)ccn1
Result: < 0.125 µM

Compound: Cn1c(Nc2cc3n(n2)CCC32CCC2)nc2ncc(Oc3ccnc(NC(=O)C4CC4)c3)c(C#N)c21
Result: < 0.125 µM

Compound: COC1CN(C(=O)Nc2cc(Oc3cnc4nc(Nc5cc6n(n5)CCCC6(F)F)n(C)c4c3C#N)ccn2)C1
Result: 0.2 to 1 µM

Compound: Cn1cc(C(F)(F)F)cc(Nc2nc3ncc(Oc4ccnc(NC(=O)OCCN5CCOCC5)c4)c(C#N)c3n2C)c1=O
Result: < 0.125 µM

Compound: COCC(=O)Nc1cc(Oc2cnc3nc(Nc4cc(C(F)(F)F)cn(C)c4=O)n(C)c3c2Cl)ccn1
Result: < 0.125 µM

Compound: COCCOC(=O)Nc1cc(Oc2cnc3nc(Nc4cc5n(n4)CCC54CCC4)n(C)c3c2C#N)ccn1
Result: < 0.125 µM

Compound: CC(=O)Nc1cc(Oc2cnc3nc(Nc4cc(C(F)(F)F)cn(C)c4=O)n(C)c3c2Cl)c(F)cn1
Result: < 0.125 µM

Compound: CC(=O)Nc1cc(Oc2cnc3nc(Nc4cc5n(n4)CCOCC5(C)C)n(C)c3c2C#N)ccn1
Result: 0.2 to 1 µM

Compound: Cn1cc(C(F)(F)F)cc(Nc2nc3ncc(Oc4ccnc(NC(=O)N5CCC5)c4)c(C#N)c3n2C)c1=O
Result: < 0.125 µM

Compound: CO[C@@H]1CCN(C(=O)Nc2cc(Oc3cnc4nc(Nc5cc6n(n5)CCC65CCC5)n(C)c4c3C#N)ccn2)C1
Result: < 0.125 µM

Compound: CO[C@H]1CCN(C(=O)Nc2cc(Oc3cnc4nc(Nc5cc(C(F)(F)F)cn(C)c5=O)n(C)c4c3C#N)ccn2)C1
Result: < 0.125 µM

Compound: COC1CN(C(=O)Nc2cc(Oc3cnc4nc(Nc5cc6n(n5)CCC65CCC5)n(C)c4c3C#N)ccn2)C1
Result: < 0.125 µM

Compound: Cn1cc(C(F)(F)F)cc(Nc2nc3ncc(Oc4ccnc(NC(=O)O[C@@H]5CCOC5)c4)c(C#N)c3n2C)c1=O
Result: < 0.125 µM

Compound: Cn1c(Nc2cc3n(n2)CCOC3(C)C)nc2ncc(Oc3ccnc(NC(=O)O[C@@H]4CCOC4)c3)c(C#N)c21
Result: 1 to 5 µM

Compound: CCN1CCN(Cc2ccc(Nc3nc4ccc(Oc5ccnc(NC(C)=O)c5)cc4n3C)cc2C(F)(F)F)CC1 [Example R-1, reference compound]
Result: 0.2 to 1 µM

###

target: JAK2 (JH1 domain-catalytic, Y1007F,Y1008F) kinase (Homo sapiens, UniProt O60674, Y1007F/Y1008F); construct: made in house; host or cells: transiently transfected HEK293 cells; test: JAK2 Binding Assay (JAK2 JH1 Domain Binding Assay); conditions: JAK2 JH1 domain binding, qPCR detection; read-out: JAK2 Kd
Sequence (O60674 849-1124 Y1007F/Y1008F limits assumed): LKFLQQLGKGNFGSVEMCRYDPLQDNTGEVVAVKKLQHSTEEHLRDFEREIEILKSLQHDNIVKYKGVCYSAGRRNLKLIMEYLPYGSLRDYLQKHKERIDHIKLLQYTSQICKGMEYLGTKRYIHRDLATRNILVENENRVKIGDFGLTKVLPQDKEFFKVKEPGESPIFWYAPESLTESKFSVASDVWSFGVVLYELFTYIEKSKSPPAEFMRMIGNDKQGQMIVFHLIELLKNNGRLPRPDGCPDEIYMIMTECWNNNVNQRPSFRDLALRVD
pKd: −log10 of the molar value.

Compound: Cn1c(Nc2cc(C(F)(F)F)cn(CCO)c2=O)nc2ncc(Oc3ccnc(NC(=O)C4CC4)c3)c(C#N)c21
pKd: > 8.00

Compound: CNC(=O)Nc1cc(Oc2cnc3nc(Nc4cc5n(n4)CCCC5(F)F)n(C)c3c2C#N)ccn1
pKd: > 8.00

Compound: CC(=O)Nc1cc(Oc2cnc3nc(Nc4cc(C(F)(F)F)n(C5CC6(COC6)C5)n4)n(C)c3c2Cl)ccn1
pKd: > 8.00

Compound: CN1CCO[C@H](CC(=O)Nc2cc(Oc3cnc4nc(Nc5cc(C(F)(F)F)cn(C)c5=O)n(C)c4c3Cl)ccn2)C1 (single isomer, unassigned)
pKd: > 8.00

Compound: CC(=O)Nc1cc(Oc2cnc3nc(Nc4cc(N5CCCC5)nc(C(F)(F)F)c4)n(C)c3c2Cl)ccn1
pKd: 6.00 to 7.30

Compound: CNC(=O)Nc1cc(Oc2cnc3nc(Nc4cc5n(n4)CCOCC5(C)C)n(C)c3c2C#N)ccn1
pKd: > 8.00

Compound: CC(=O)Nc1cc(Oc2cnc3nc(Nc4ccc(CN(C)C)c(C(F)(F)F)c4)n(C)c3c2Cl)ccn1
pKd: > 8.00
